Biological target: Peptidyl-prolyl cis-trans isomerase A (Homo sapiens)
Assay: Binding affinity to human cyclophilin A by intrinsic tryptophan fluorescence titration assay
Details: read-out: Kd
hey, just use 1 if measured Kd is less than 100 µM, otherwise -1

Here are 3 compounds together with their reported answers.
>  <structure.as.smiles>
CCN(CC)c1nc(C)c([N+](=O)[O-])c(NCCNC(=S)Nc2cccc(Br)c2)n1

>  <answer.label>
1

$$$$
>  <structure.as.smiles>
O=C1OCc2ccc(NC(=S)Nc3cccc(F)c3)cc21

>  <answer.label>
-1

$$$$
>  <structure.as.smiles>
Cc1cccc(NC(=S)Nc2ccc3c(c2)C(=O)OC3)c1

>  <answer.label>
-1

$$$$

Task: Please indicate whether the reported Kd of "Cc1ccc(NC(=S)Nc2ccc(S(=O)(=O)Nc3nccs3)cc2)cc1Cl" is strictly below 100 µM.
Output: 1

Task: Subsequent entry: "Cc1cc(NS(=O)(=O)c2ccc(NC(=S)Nc3cccc(Br)c3)cc2)no1"
Output: 1

Task: What do you get for "Cc1ccc(NC(=S)Nc2ccc(S(=O)(=O)Nc3cc(C)on3)cc2)cc1" ?
Output: -1

Task: Could you do the same for "CCN(CC)c1nc(C)cc(NCCNC(=S)Nc2cccc(Br)c2)n1" , please?
Output: -1

Task: Let us now turn to "Cc1ccc(NC(=S)Nc2ccc(C)c([N+](=O)[O-])c2)cc1Cl"
Output: 1

====

Target: Peptidyl-prolyl cis-trans isomerase A (Homo sapiens, UniProt P62937)
Sequence (P62937 whole entry): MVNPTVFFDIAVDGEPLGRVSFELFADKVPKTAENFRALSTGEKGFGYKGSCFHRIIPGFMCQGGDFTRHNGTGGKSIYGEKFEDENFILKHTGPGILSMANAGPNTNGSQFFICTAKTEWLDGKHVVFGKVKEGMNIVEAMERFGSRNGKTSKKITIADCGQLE
Test: Binding affinity to human cyclophilin A by intrinsic tryptophan fluorescence titration assay
Settings: read-out: Kd
The entries below are paired with their reported Kd.
Write the value in µM as a bare number.

>  <structure.as.smiles>
Cc1cc(NS(=O)(=O)c2ccc(NC(=S)Nc3cccc(Cl)c3)cc2)no1

>  <Kd / µM>
79.6

$$$$
>  <structure.as.smiles>
COc1ccc(NC(=S)Nc2ccc3c(c2)C(=O)OC3)cc1

>  <Kd / µM>
172

$$$$
>  <structure.as.smiles>
Cc1ccc(NC(=S)Nc2ccc(S(=O)(=O)Nc3nccs3)cc2)cc1

>  <Kd / µM>
76.9

$$$$

Task: So what does the record say about Kd for "O=C1OCc2ccc(NC(=S)Nc3ccc(Cl)cc3)cc21" ?
Output: 222

Each recorded value in this set is attributed to ChEMBL document CHEMBL1153444.
